- test.target: T1, ECF02_915
- T1 chain: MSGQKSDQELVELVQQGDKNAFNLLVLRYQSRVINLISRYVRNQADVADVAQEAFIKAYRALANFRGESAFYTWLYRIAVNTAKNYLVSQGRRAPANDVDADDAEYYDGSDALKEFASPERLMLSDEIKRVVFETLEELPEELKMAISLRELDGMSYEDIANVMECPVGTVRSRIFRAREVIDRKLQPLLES
value.type: fold repression
Please give the numeric answer without any surrounding text.

Quick one: give measured fold repression for AS22_4450 (protein) MELDDMKHAWQTLEQRLDQQAAQTGQLLGVVHEETVRSSLRPLWVAQTAQLLCALALAIVSARSWIPHTDQPVAVIGGVLLQAWCMALAISAMVQLQLLTQFNVAGPLLRTQHALARLRRWRTRVAPWLGVAFWVLWIAVADALWRALTGQTLPTDWLVLNLLVGVAGGIGTWLGFRRLQRAQHPWLERIDRAHAGTGVIRAERMLEEIARFQRD
2.12

Please indicate fold repression recorded for AS27_4265 (protein) MTGHPDVAEIADLAEGLLPTTRTTEVRQHLESCELCADVYASLTEIQGLLGTLPAPAPMPDDVAARIDAALAAEPPLGIADGTRVSRETSTPADRPAGHARPSSTGPGRKDRRRGGRRRIAVLGAVAAAAAIGIGSVVVSSLTEDSSSGNTAREQQTAIADTFSEGRLKDRVTNLVADGSAENGSRTPRSFGMESENGGETAENHVFKQPTVPECIRKGIGRDDAVIATEPGVYKGREALLVVLPDATNDTQVTAYIVETACVDQPAVGKAKILLEHSYARS
2.41

---
Using known records, supply fold repression for AS04_1609 (protein) MNRTTEQRNAEVMKTIGLLDQMPRVEVDHLFRVRLMQRIEAMEVKKTSWSALPGGAFNPRLAFMALLLMLNIASALMLFMHGTPQATGSSGAIAESLTEDYGGPALSYYDDQTTIDR
2.99
